tgt: NK1 receptor (Homo sapiens, UniProt P25103)
Construct: endogenous in cells; host or cells: IM9 cells (intact)
Sequence (P25103 whole entry): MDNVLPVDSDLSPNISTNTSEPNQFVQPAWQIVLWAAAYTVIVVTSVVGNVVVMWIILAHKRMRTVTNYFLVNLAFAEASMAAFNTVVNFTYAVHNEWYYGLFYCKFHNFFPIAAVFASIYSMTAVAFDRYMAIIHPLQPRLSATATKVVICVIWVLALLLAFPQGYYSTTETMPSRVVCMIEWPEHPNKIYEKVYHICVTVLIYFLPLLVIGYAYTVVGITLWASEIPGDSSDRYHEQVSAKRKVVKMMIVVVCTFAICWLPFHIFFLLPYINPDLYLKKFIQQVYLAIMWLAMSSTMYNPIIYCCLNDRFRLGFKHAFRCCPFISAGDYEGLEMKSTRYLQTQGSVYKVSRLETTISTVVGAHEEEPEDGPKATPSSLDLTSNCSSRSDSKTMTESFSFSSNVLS
assayRemarks: [3H] SP binding assay in IM9 Cell Line (Substance P antagonism)
conditionDescription: intact IM9 cells, 60 min, room temperature, compound at 1 μM
assayReadout: inhibition at 1 µM (%)

molecule	assayReadout	unitSymbol	valueMeasured
CN(Cc1ccccc1)C(=O)[C@H](Cc1ccccc1)NC(=O)C1CCCCC1NC(=O)c1c[nH]c2ccccc12 (stereo partly shown) [Example 1 fast, reference compound]	inhibition at 1 µM	%	96
CN(Cc1ccccc1)C(=O)[C@@H](Cc1ccc2ccccc2c1)NC(=O)C1CCCCC1NC(=O)c1ccccc1 (stereo partly shown)	inhibition at 1 µM	%	98
CN(Cc1ccccc1)C(=O)[C@H](Cc1ccc2ccccc2c1)NC(=O)C1CCCCC1NC(=O)c1c[nH]c2ccccc12 (stereo partly shown)	inhibition at 1 µM	%	100
CN(Cc1ccccc1)C(=O)[C@H](Cc1ccc2ccccc2c1)NC(=O)C1C2CCC(C2)C1NC(=O)c1c[nH]c2ccccc12 (stereo partly shown)	inhibition at 1 µM	%	95
